Data origin, for the record: patent US20250034266A1

Each entry below carries its recorded EC50.
System name: T1, human CCR8 (human, UniProt P51685 1-355)
T1 construct: whole, on cells; also called hCCR8
T1 sequence (P51685 whole entry): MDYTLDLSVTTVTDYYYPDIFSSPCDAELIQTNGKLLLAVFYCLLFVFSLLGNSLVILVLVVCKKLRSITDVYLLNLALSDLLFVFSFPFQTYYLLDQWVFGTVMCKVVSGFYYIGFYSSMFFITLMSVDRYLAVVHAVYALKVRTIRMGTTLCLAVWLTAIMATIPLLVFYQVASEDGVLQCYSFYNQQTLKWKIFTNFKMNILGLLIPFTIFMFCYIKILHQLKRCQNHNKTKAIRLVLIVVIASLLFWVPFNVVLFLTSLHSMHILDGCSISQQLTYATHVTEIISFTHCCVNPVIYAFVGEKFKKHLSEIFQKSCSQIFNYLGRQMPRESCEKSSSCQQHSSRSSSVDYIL
Procedure details: FACS on HEK293-human CCR8 cells
Param answer (str): number followed by unit.

Binder: Hu348-9 (antibody, V domains shown, humanized IgG) VH: EVQLVESGGGLVQPGGSLKLSCATSGFSFSNYRMHWLRQASGKGLEWVGVITVKSDNYGANYAASVKGRFTISRDDSKSSVYLQMNSLKTEDTAVYYCTSLGRVAYWGQGTLVTVSS VL: DIQMTQSPSSVSASVGDRVTITCKASQNVDTNVVWYQQKPGQSPKALIYSASSRYSGVPDRFSGSGSGTDFTLTISSLQPEDFATYYCQQHNSFPLTFGQGTKLEIK
Data value: 0.182 nM

Problem: For the binder Hu348-4 (antibody, human IgG1, V domains shown, humanized, human IgG1; also called Hu348-4 HuIgG1) VH: EVQLVESGGGLVQPGGSLKLSCATSGFSFSNYRMHWLRQASGKGLEWVGVITVKSDNYGANYAASVKGRFTISRDDSKSSVYLQMNSLKTEDTAVYYCSSLGRVAYWGQGTLVTVSS VL: DIQMTQSPSSVSASVGDRVTITCKASQNVDTNVVWYQQKPGQSPKALIYSASSRYSGVPSRFSGSGSGTDFTLTISSLQPEDFATYYCQQHNSFPLTFGQGTKLEIK , what EC50 is on record?
Solution: 0.109 nM

Problem: For the binder Hu348-3 (antibody, V domains shown, humanized IgG) VH: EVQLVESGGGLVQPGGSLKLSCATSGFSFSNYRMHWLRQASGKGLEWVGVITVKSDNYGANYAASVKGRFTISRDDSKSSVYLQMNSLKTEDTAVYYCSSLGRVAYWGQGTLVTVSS VL: DIQMTQSPSSVSASVGDRVTITCKASQNVDTNVVWYQQKPGQSPKLLIYSASSRYSGVPDRFSGSGSGTDFTLTISSLQPEDFATYYCQQHNSFPLTFGQGTKLEIK , what EC50 is on record?
Solution: 0.108 nM

Problem: For the binder Hu348-6 (antibody, V domains shown, humanized IgG) VH: EVQLVESGGGLVQPGGSLKLSCATSGFSFSNYRMHWVRQASGKGLEWVGVITVKSDNYGANYAASVKGRFTISRDDSKSSVYLQMNSLKTEDTAVYYCSSLGRVAYWGQGTLVTVSS VL: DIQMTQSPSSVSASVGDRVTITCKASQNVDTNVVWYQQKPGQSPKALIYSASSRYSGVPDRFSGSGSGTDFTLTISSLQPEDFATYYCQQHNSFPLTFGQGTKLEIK , what EC50 is on record?
Solution: 0.978 nM

Problem: For the binder Hu348-1 (antibody, V domains shown, humanized IgG) VH: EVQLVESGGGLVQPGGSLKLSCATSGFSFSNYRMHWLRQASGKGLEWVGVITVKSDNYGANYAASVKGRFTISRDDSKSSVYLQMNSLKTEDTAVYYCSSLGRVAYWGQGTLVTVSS VL: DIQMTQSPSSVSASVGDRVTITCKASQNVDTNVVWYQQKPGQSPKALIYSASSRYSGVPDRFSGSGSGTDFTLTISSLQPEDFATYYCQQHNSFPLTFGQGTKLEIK , what EC50 is on record?
Solution: 0.122 nM
